# System: Pasteurella multocida
# assay overview: Treatment of Pasteurellosis in chicks (Table III)
# Format: in vivo, chicks; avian P. multocida
# condition info: 30 mg/kg × 2 s.c., 1 and 4 h post challenge; 5 days observation; ten chicks per group; first (or only) experiment
reported property: Deaths in Treated Chicks/Deaths in Infected Nonmedicated Controls

[
  {
    "compound": "CCC1OC(=O)CC(O)C(C)C(OC2OC(C)C(O)C(N(C)C)C2O)C(CC=O)CC(C)C(=O)C=CC(C)=CC1C (stereo not drawn) [DOMT, 23-deoxy-5-O-mycaminosyltylonolide]",
    "value measured": "1/9"
  },
  {
    "compound": "CCC1OC(=O)CC(O)C(C)C(OC2OC(C)C(O)C(N(C)C)C2O)C(CC=O)CC(C)C(=O)C=CC(C)=CC1COC1OC(C)C(O)C(O)C1OC (stereo not drawn)",
    "value measured": "0/10"
  },
  {
    "compound": "CC[C@H]1OC(=O)C[C@@H](O)[C@H](C)[C@@H](O[C@@H]2O[C@H](C)C[C@H](N(C)C)[C@H]2O)[C@@H](CC=O)C[C@@H](C)C(=O)/C=C/[C@]2(C)O[C@H]2[C@@H]1C",
    "value measured": "5/8"
  },
  {
    "compound": "CCC1OC(=O)CC(O)C(C)C(OC2OC(C)C(O)C(N(C)C)C2O)C(CCO)CC(C)C(=O)C=CC(C)=CC1COC1OC(C)C(O)C(OC)C1OC (stereo not drawn) [20-Dihydrodesmycosin, 20-dihydrodesmycosin]",
    "value measured": "0/10"
  },
  {
    "compound": "CCC1OC(=O)CC(O)C(C)C(OC2OC(C)C(O)C(N(C)C)C2O)C(CC=O)CC(C)C(O)C=CC(C)=CC1COC1OC(C)C(O)C(OC)C1OC (stereo not drawn) [9-Dihydrodesmycosin, 9-dihydrodesmycosin]",
    "value measured": "3/10"
  }
]

--- query ---
query: Any idea what Deaths in Treated Chicks/Deaths in Infected Nonmedicated Controls was measured for CCC1OC(=O)CC(O)C(C)C(OC2OC(C)C(O)C(N(C)C)C2O)C(CC=O)CC(C)C(=O)C=CC(C)=CC1COC1OC(C)C(O)C(OC)C1OC (stereo not drawn) ?
result: 0/10

====

Consider the following compounds and their measured Deaths in Treated Chicks/Deaths in Infected Nonmedicated Controls readings.
# System: Pasteurella multocida
# assay overview: Treatment of Pasteurellosis in chicks (Table III)
# Assay type: in vivo, chicks; avian P. multocida
# condition info: 30 mg/kg × 2 s.c., 1 and 4 h post challenge; 5 days observation; ten chicks per group; second experiment

Examples with answers:
[
  {
    "compound": "CCC1OC(=O)CC(O)C(C)C(OC2OC(C)C(O)C(N(C)C)C2O)C(CC=O)CC(C)C(=O)C=CC(C)=CC1C (centres unmarked) [DOMT, 23-deoxy-5-O-mycaminosyltylonolide]",
    "value measured": "1/10"
  },
  {
    "compound": "CCC1OC(=O)CC(O)C(C)C(OC2OC(C)C(O)C(N(C)C)C2O)C(CCO)CC(C)C(=O)C=CC(C)=CC1COC1OC(C)C(O)C(OC)C1OC (centres unmarked) [20-Dihydrodesmycosin, 20-dihydrodesmycosin]",
    "value measured": "0/10"
  },
  {
    "compound": "CCC1OC(=O)CC(O)C(C)C(OC2OC(C)C(O)C(N(C)C)C2O)C(CC=O)CC(C)C(=O)C=CC(C)=CC1COC1OC(C)C(O)C(OC)C1OC (centres unmarked)",
    "value measured": "0/10"
  },
  {
    "compound": "CCC1OC(=O)CC(O)C(C)C(OC2OC(C)C(O)C(N(C)C)C2O)C(CC=O)CC(C)C(O)C=CC(C)=CC1COC1OC(C)C(O)C(OC)C1OC (centres unmarked) [9-Dihydrodesmycosin, 9-dihydrodesmycosin]",
    "value measured": "0/10"
  }
]

query: Any idea what Deaths in Treated Chicks/Deaths in Infected Nonmedicated Controls was measured for CCC1OC(=O)CC(O)C(C)C(OC2OC(C)C(O)C(N(C)C)C2O)C(CC=O)CC(C)C(=O)C=CC(C)=CC1COC1OC(C)C(O)C(O)C1OC (centres unmarked) ?
result: 0/10
